- tgt: T1, human ferroportin (SLC40A1) fused in frame with GFP, stably expressed in HEK293 cells (human, UniProt Q9NP59 1-571)
- T1 sequence (looked up): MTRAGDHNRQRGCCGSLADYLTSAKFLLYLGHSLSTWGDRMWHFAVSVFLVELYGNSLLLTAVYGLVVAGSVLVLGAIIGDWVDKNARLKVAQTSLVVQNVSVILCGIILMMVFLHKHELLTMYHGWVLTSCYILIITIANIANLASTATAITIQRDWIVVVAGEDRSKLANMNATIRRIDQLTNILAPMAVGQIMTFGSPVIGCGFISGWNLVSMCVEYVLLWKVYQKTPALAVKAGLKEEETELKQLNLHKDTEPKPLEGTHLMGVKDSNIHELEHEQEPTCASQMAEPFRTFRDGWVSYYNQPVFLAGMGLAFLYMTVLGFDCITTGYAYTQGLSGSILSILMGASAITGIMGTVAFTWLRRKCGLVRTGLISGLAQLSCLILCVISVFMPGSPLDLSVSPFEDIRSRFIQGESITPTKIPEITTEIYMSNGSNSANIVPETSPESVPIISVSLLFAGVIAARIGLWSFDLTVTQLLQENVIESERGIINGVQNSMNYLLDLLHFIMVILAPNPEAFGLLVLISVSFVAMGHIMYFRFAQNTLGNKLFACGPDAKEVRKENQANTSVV
- assayProtocol: cell-based or functional assay
Numbered stars: 1 amine (or outer) side, 2 acyl side, 3 side chain; on linkers, the order of the positions; unused ones are H or OH. Bridge positions count the residues as written; N and C are the ends. Square brackets hold non-standard residues; d marks the D form. Ends that are not written are not given here. * marks the point of attachment. Ida = iminodiacetic acid, O=C(CN(CC(=O)[*:3])[*:1])[*:2]; Dip = N[C@H](C(=O)O)C(c1ccccc1)c1ccccc1; β3hP = O=C(O)C[C@@H]1CCCN1; Isovaleryl = CC(C)CC(=O)*
Please use Condition met for Potency EC50 under 100 nM and Condition not met for everything else, ties included.

Ask: Potency EC50 under 100 nM? Item: H-DTHFAICIFGPRSKGWVCM-NH2 (cysteine pairing not given here) [Compound 26]
Result: Condition not met

Ask: Potency EC50 under 100 nM? Item: H-DTHFPCIIFK-NH2 [Compound 55]
Result: Condition not met

Ask: Potency EC50 under 100 nM? Item: H-DTHFPCIYFGPRSKGWVCK-NH2 (not fully specified (bridges); printed as Hy-DTHFPCIYFGPRSKGWVCK-NH2; cysteine pairing not given here) [Compound 85]
Result: Condition not met

Others:
Ask: Potency EC50 under 100 nM? Item: Isovaleryl-DTHFPCIKFEPRSKGWVCK-NH2 (not fully specified (bridges); cysteine pairing not given here) [Compound 181]
Result: Condition met

Ask: Potency EC50 under 100 nM? Item: [Ida]TH[Dip][β3hP]ICIFGPRSKGWVCM-NH2 (disulfide 7-18 (inferred)) [Compound 5]
Result: Condition met

Provenance of the data: patent US20250340608A1
